Ratio listing for selected compounds.
Assay: Ratio of 50% fall blood pressure to that of rhythmic slow wave activity in anesthetized rats
Type: functional

[
  {
    "COMPOUND": "CO/N=C(\\C)C1CN2CCC1CC2 (centres undefined)",
    "CENSORING SIGN": ">",
    "Ratio": 1
  },
  {
    "COMPOUND": "CO/N=C(\\C#N)C12CCN(CC1)C2",
    "CENSORING SIGN": "=",
    "Ratio": 1.8
  },
  {
    "COMPOUND": "CO/N=C(\\C#N)[C@H]1CN2CCC1CC2 [SABCOMELINE]",
    "CENSORING SIGN": ">",
    "Ratio": 18.8
  },
  {
    "COMPOUND": "CO/N=C(\\Cl)C12CCCN(CC1)C2 (centres undefined)",
    "CENSORING SIGN": "=",
    "Ratio": 10
  },
  {
    "COMPOUND": "CO/N=C(\\C#N)C1CN2CCC1CC2 (centres undefined)",
    "CENSORING SIGN": ">",
    "Ratio": 10.9
  },
  {
    "COMPOUND": "CO/N=C(\\C#N)[C@H]1CN2CC[C@H]1C2",
    "CENSORING SIGN": "=",
    "Ratio": 4.7
  },
  {
    "COMPOUND": "CO/N=C(/C)C12CCCN(CC1)C2 (centres undefined)",
    "CENSORING SIGN": "=",
    "Ratio": 1
  },
  {
    "COMPOUND": "CO/N=C(\\C#N)C12CCCN(CC1)C2 (centres undefined)",
    "CENSORING SIGN": "=",
    "Ratio": 4
  },
  {
    "COMPOUND": "CO/N=C(\\C#N)[C@@H]1CN2CC[C@H]1C2",
    "CENSORING SIGN": "=",
    "Ratio": 4.8
  }
]
